# melting point listing for each entry below

// solved cases for melting point follow
CC(C)(C)C(=O)c1c[nH]c2ncc(-c3cccc(NCCS(C)(=O)=O)c3)nc12 | 205 to 206 °C
COc1ccc(-c2cnc3[nH]cc(C(=O)NC4CCN(C)C4)c3n2)cc1OC (centres unmarked) | 193 to 194 °C
CC(C)(C)OC(=O)N1CCN(c2cccc(-c3cnc4[nH]cc(C(=O)C(C)(C)C)c4n3)c2)CC1 | 215.2 to 215.8 °C
CC(C)(C)C(=O)c1c[nH]c2ncc(-c3cccc(N4CCN(C(=O)CC#N)CC4)c3)nc12 | 240 to 242 °C
COc1cc(-c2cnc3[nH]cc(C(=O)O)c3n2)cc(OC)c1OC | 237.8 to 238.4 °C

## Task Sample CC(C)CC(=O)c1c[nH]c2ncc(-c3cccc(N4CCCC4)c3)nc12 — what was its melting point?
## Result 260 to 261 °C

## Task Sample COCc1cccc(-c2cnc3[nH]cc(C(=O)C(C)(C)C)c3n2)c1 — what was its melting point?
## Result 143 to 144 °C

## Task Sample COc1cc(-c2cnc3[nH]cc(C(=O)NCC(C)(C)CO)c3n2)cc(OC)c1OC — what was its melting point?
## Result 224 to 225 °C

----------
Molecular target: JAK3: Recombinant human kinase domain (Homo sapiens)
Sequence (P52333 822-1111 limits assumed): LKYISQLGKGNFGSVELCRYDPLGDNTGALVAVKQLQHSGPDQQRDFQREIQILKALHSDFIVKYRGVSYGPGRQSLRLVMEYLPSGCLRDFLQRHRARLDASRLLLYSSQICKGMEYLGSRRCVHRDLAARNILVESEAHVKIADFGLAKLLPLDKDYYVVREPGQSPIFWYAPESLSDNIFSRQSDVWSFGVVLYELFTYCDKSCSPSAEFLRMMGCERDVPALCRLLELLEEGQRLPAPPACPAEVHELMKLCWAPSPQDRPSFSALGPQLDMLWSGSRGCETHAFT
Experiment: JAK3 kinase inhibition, radioactive end-point assay
Assay type: biochemical
Settings: 0.5 nM or 0.2 nM JAK3, ATP 1.5 uM, peptide 50 uM, 20 minutes, room temperature; read-out: IC50 h-jak3-sf21-c
Text: Determination of IC50 of Janus Kinase (JAK) Inhibition: […]
readout-type: IC50 (nM)

// solved cases for IC50 follow
COc1cc(-c2cnc3[nH]cc(C(=O)NCC(C)OC)c3n2)cc(OC)c1OC (stereo not shown) [Example I-82] | 4.6
COc1cc(-c2cnc3[nH]cc(C(=O)C(C)(C)C)c3n2)cc(OC)c1OC [Example I-12] | 56.1

A = CC(C)(C)C(=O)c1c[nH]c2ncc(-c3cccc(N4CCCC4)c3)nc12 [Example I-64]
B = COc1cc(-c2cnc3[nH]cc(C(=O)C4(C)CCCCC4)c3n2)cc(OC)c1OC [Example I-117]
## Task Kindly identify the item with the lower IC50 figure among these two: A and B Indicate which entry you chose by stating its label.
## Result B
(B: 6.8 nM, A: 24.1 nM)

----------
# melting point listing for each entry below

## Task Sample Cc1ccc(-c2cnc3[nH]cc(C(=O)C(C)(C)C)c3n2)cc1NS(=O)(=O)c1ccc(N)cc1 [Example I-416] — what was its melting point?
## Result 264 to 266 °C

## Task Sample COc1cc(-c2cnc3[nH]cc(C(=O)C(C)(C)CO)c3n2)cc(OC)c1OC [Example 165] — what was its melting point?
## Result 227 to 229 °C

## Task Sample CCNC1CCN(c2cccc(-c3cnc4[nH]cc(C(=O)C(C)(C)C)c4n3)c2)C1 (stereo not shown) [Example 208] — what was its melting point?
## Result 200 to 202 °C

## Task Sample CNc1ccc(-c2cnc3[nH]cc(C(=O)C4(C)CCCCC4)c3n2)cc1 [Example 171] — what was its melting point?
## Result 273 to 275 °C

----------
readout-type: melting point

// solved cases for melting point follow
CC1(C(=O)c2c[nH]c3ncc(-c4cccc(N5CCOCC5)c4)nc23)CCCCC1 | 208 to 209 °C
CCOC(C)(OCC)C(=O)c1c[nH]c2ncc(-c3cc(OC)c(OC)c(OC)c3)nc12 | 198.2 to 201 °C
CC(C)(C)C(=O)c1c[nH]c2ncc(-c3cccc(N4CC5(COC5)C4)c3)nc12 | 260 to 262 °C

Let's switch to this molecule now.
## Task Sample CC(C)(C)OCc1cccc(-c2cnc3[nH]cc(C(=O)C(C)(C)C)c3n2)c1 — what was its melting point?
## Result 202 to 203 °C

----------
# melting point listing for each entry below

// solved cases for melting point follow
CC(C)(C)C(=O)c1c[nH]c2ncc(-c3cccc(NS(=O)(=O)c4ccc(N)cc4)c3)nc12 [Example 235] | 285 to 286 °C
CC(C)(C)C(=O)c1c[nH]c2ncc(-c3cccc(N4CCC(O)C4)c3)nc12 (stereo not shown) [Example I-402] | 245 to 248 °C
O=C(c1c[nH]c2ncc(Br)nc12)C12CC3CC(CC(C3)C1)C2 [Example 161] | 279 to 280 °C
CC1(O)CCN(c2cccc(-c3cnc4[nH]cc(C(=O)C(C)(C)C)c4n3)c2)C1 (stereo not shown) [Example I-417] | 237 to 239 °C
CC(=O)Nc1cccc(-c2cnc3[nH]cc(C(=O)C(C)(C)C)c3n2)c1 [Example 228] | 249 to 250 °C

## Task Sample C[S+]([O-])c1ccc(-c2cnc3[nH]cc(C(=O)C(C)(C)C)c3n2)cc1N1CCCC1 (stereo not shown) [Example 107] — what was its melting point?
## Result 150 to 152 °C

## Task Sample CC(C)(C)C(=O)c1c[nH]c2ncc(-c3cccc(CCCO)c3)nc12 [Example 143] — what was its melting point?
## Result 170 to 171 °C

----------
# melting point listing for each entry below

// solved cases for melting point follow
CC1(C(=O)c2c[nH]c3ncc(-c4ccc(N5CCOCC5)cc4)nc23)CCCCC1 [Example 172] | 233 to 235 °C
Cc1nnc(-c2cccc(-c3cnc4[nH]cc(C(=O)C5(C)CCCCC5)c4n3)c2)o1 [Example 155] | 234 to 236 °C
CC(C)(C)C(=O)c1c[nH]c2ncc(-c3cccc(NS(=O)(=O)c4ccccc4)c3)nc12 [Example 234] | 217 to 219 °C
COc1cc(-c2cnc3[nH]cc(C(=O)C4(C)CCC(O)CC4)c3n2)cc(OC)c1OC (stereo not shown) [Example 191] | 242 to 244 °C
CC(C)(C)C(=O)c1c[nH]c2ncc(-c3ccccc3O)nc12 [Example 152] | 282 to 283 °C

## Task Sample COc1cc(-c2cnc3[nH]cc(C(=O)C(C)(C)C)c3n2)cc(OC)c1OC [Example 67] — what was its melting point?
## Result 240 to 241 °C

----------
# melting point listing for each entry below

// solved cases for melting point follow
CC(=O)N1CCN(c2ccc(-c3cnc4[nH]cc(C(=O)C(C)(C)C)c4n3)cc2)CC1 | 266 to 267 °C
CCCOc1cccc(-c2cnc3[nH]cc(C(=O)C(C)(C)C)c3n2)c1 | 179 to 180 °C
CC(C)(C)C(=O)c1c[nH]c2ncc(-c3cccc(OCCN4CCOCC4)c3)nc12 | 152.9 to 154.7 °C
CC(C)(C)C(=O)c1c[nH]c2ncc(-c3cccc(-c4cnc[nH]4)c3)nc12 | 287 to 288 °C
CNC(=O)c1cccc(-c2cnc3[nH]cc(C(=O)C(C)(C)C)c3n2)c1 | 257 to 258 °C

## Task Sample COCC1CCCN1c1cccc(-c2cnc3[nH]cc(C(=O)NC(C)C)c3n2)c1 (stereo not drawn) — what was its melting point?
## Result 187 to 190 °C

## Task Sample CC1(N)CCN(c2cccc(-c3cnc4[nH]cc(C(=O)C(C)(C)C)c4n3)c2)C1 (stereo not drawn) — what was its melting point?
## Result 216 to 218 °C

## Task Sample CC(C)COc1cccc(-c2cnc3[nH]cc(C(=O)C(C)(C)C)c3n2)c1 — what was its melting point?
## Result 177 to 178 °C

----------
# melting point listing for each entry below

COC(=O)C1(C)CCN(c2cccc(-c3cnc4[nH]cc(C(=O)C(C)(C)C)c4n3)c2)C1 (stereo not shown) | 198 to 200 °C
CC1(C(=O)c2c[nH]c3ncc(-c4cccc(N5CCN(C(=O)C6CCNCC6)CC5)c4)nc23)CCCCC1 | > 300 °C
COc1cc(-c2cnc3[nH]cc(C(=O)C(C)(CO)CO)c3n2)cc(OC)c1OC | 222 to 223 °C

## Task Sample CC(C)(C)OC(=O)N1CCN(c2cccc(-c3cnc4[nH]cc(C(=O)C5(C)CCCCC5)c4n3)c2)CC1 — what was its melting point?
## Result 212 to 213 °C

## Task Sample CC1(C(=O)c2c[nH]c3ncc(-c4ccc(OCCN5CCCCC5)cc4)nc23)CCCCC1 — what was its melting point?
## Result 180 to 182 °C

## Task Sample COc1cc(-c2cnc3[nH]cc(C(=O)N4CCCC4)c3n2)cc(OC)c1OC — what was its melting point?
## Result 210 to 212 °C

## Task Sample COc1cc(-c2cnc3[nH]cc(C(=O)C(C)(C)C)c3n2)cc(N2CC[S+]([O-])CC2)c1 — what was its melting point?
## Result 259 to 260 °C

## Task Sample CC1(C(=O)c2c[nH]c3ncc(-c4cccc(N5CCCC5=O)c4)nc23)CCCCC1 — what was its melting point?
## Result 215 to 217 °C

## Task Sample COc1ccc(-c2cnc3[nH]cc(C(=O)C(C)(C)C)c3n2)cc1N1CCCC1 — what was its melting point?
## Result 211 to 213 °C
